Origin of measurements: ChEMBL document CHEMBL2146439

Tested on: Rattus norvegicus
Experiment: Antiinflammatory activity in Wistar albino rat assessed as inhibition of carrageenan-induced paw edema at 40 mg/kg, po administered 1 hr prior to carrageenan challenge measured 4 hrs post carrageenan challenge relative to control
Assay type: functional
Give measured inhibition in vivo at 40 mg/kg for each item. Keep answers brief.
Enter the number, and then the unit.

Identify the reported inhibition in vivo at 40 mg/kg for the following entry. Cc1nc(-c2ccc(Cl)cc2)sc1C1SCC(=O)N1c1ccc(Cl)cc1 (stereo not given)
43.1%

Identify the reported inhibition in vivo at 40 mg/kg for the following entry. COc1ccc(N2C(=O)CSC2c2sc(-c3ccc(Cl)cc3)nc2C)cc1 (stereo not given)
59.1%

Identify the reported inhibition in vivo at 40 mg/kg for the following entry. COc1ccc(N2C(=O)CSC2c2sc(Cc3ccc(Cl)cc3)nc2C)cc1 (stereo not given)
55.9%

Identify the reported inhibition in vivo at 40 mg/kg for the following entry. Cc1ccc(N2C(=O)CSC2c2sc(-c3ccccc3)nc2C)cc1 (stereo not given)
80.6%

Identify the reported inhibition in vivo at 40 mg/kg for the following entry. COc1ccc2c(c1)c(CC(=O)O)c(C)n2C(=O)c1ccc(Cl)cc1
87.3%

###

Give measured inhibition in vivo at 40 mg/kg for each item. Keep answers brief.
System: Rattus norvegicus
Test: Antiinflammatory activity in Wistar albino rat assessed as inhibition of carrageenan-induced paw edema at 40 mg/kg, po administered 1 hr prior to carrageenan challenge measured 2 hrs post carrageenan challenge relative to control
Type: functional
Numeric only. Scale: %

Identify the reported inhibition in vivo at 40 mg/kg for the following entry. COc1ccc(N2C(=O)CSC2c2sc(-c3ccccc3)nc2C)cc1 (stereo unspecified)
48.1

Identify the reported inhibition in vivo at 40 mg/kg for the following entry. Cc1nc(Cc2ccc(Cl)cc2)sc1C1SCC(=O)N1c1ccc(Cl)cc1 (stereo unspecified)
40.1

Identify the reported inhibition in vivo at 40 mg/kg for the following entry. Cc1nc(Cc2ccc(Cl)cc2)sc1C1SCC(=O)N1c1ccc(F)c(Cl)c1 (stereo unspecified)
45.1

Identify the reported inhibition in vivo at 40 mg/kg for the following entry. Cc1ccc(N2C(=O)CSC2c2sc(Cc3ccc(Cl)cc3)nc2C)cc1 (stereo unspecified)
61.4

Identify the reported inhibition in vivo at 40 mg/kg for the following entry. Cc1nc(-c2ccccc2)sc1C1SCC(=O)N1c1ccc(Cl)cc1 (stereo unspecified)
59.1

Identify the reported inhibition in vivo at 40 mg/kg for the following entry. Cc1nc(-c2ccccc2)sc1C1SCC(=O)N1c1ccc(F)c(Cl)c1 (stereo unspecified)
20.9

###

System: Rattus norvegicus
Test: Antiinflammatory activity in Wistar albino rat assessed as inhibition of carrageenan-induced paw edema at 40 mg/kg, po administered 1 hr prior to carrageenan challenge measured 1 hr post carrageenan challenge relative to control
Type: functional
inhibition in vivo at 40 mg/kg of 60% or higher: true. Under 60%: false.

Please tell me: is the compound Cc1nc(-c2ccc(Cl)cc2)sc1C1SCC(=O)N1c1ccc(Cl)cc1 (stereo unspecified) at or over 60% in terms of inhibition in vivo at 40 mg/kg?
true

Please tell me: is the compound Cc1nc(Cc2ccc(Cl)cc2)sc1C1SCC(=O)N1c1ccc(F)c(Cl)c1 (stereo unspecified) at or over 60% in terms of inhibition in vivo at 40 mg/kg?
false

Please tell me: is the compound Cc1ccc(N2C(=O)CSC2c2sc(-c3ccc(Cl)cc3)nc2C)cc1 (stereo unspecified) at or over 60% in terms of inhibition in vivo at 40 mg/kg?
false

Please tell me: is the compound Cc1nc(-c2ccc(Cl)cc2)sc1C1SCC(=O)N1c1ccc(F)cc1 (stereo unspecified) at or over 60% in terms of inhibition in vivo at 40 mg/kg?
true

Please tell me: is the compound Cc1nc(Cc2ccc(Cl)cc2)sc1C1SCC(=O)N1c1ccc(Cl)cc1 (stereo unspecified) at or over 60% in terms of inhibition in vivo at 40 mg/kg?
false

Please tell me: is the compound Cc1ccc(N2C(=O)CSC2c2sc(-c3ccccc3)nc2C)cc1 (stereo unspecified) at or over 60% in terms of inhibition in vivo at 40 mg/kg?
false

Please tell me: is the compound Cc1nc(-c2ccccc2)sc1C1SCC(=O)N1c1ccc(F)c(Cl)c1 (stereo unspecified) at or over 60% in terms of inhibition in vivo at 40 mg/kg?
false

Please tell me: is the compound Cc1nc(-c2ccccc2)sc1C1SCC(=O)N1c1ccccc1 (stereo unspecified) at or over 60% in terms of inhibition in vivo at 40 mg/kg?
false

Please tell me: is the compound COc1ccc(N2C(=O)CSC2c2sc(-c3ccc(Cl)cc3)nc2C)cc1 (stereo unspecified) at or over 60% in terms of inhibition in vivo at 40 mg/kg?
false

Please tell me: is the compound Cc1nc(-c2ccccc2)sc1C1SCC(=O)N1c1ccc(F)cc1 (stereo unspecified) at or over 60% in terms of inhibition in vivo at 40 mg/kg?
true

Please tell me: is the compound COc1ccc(N2C(=O)CSC2c2sc(Cc3ccc(Cl)cc3)nc2C)cc1 (stereo unspecified) at or over 60% in terms of inhibition in vivo at 40 mg/kg?
false

Please tell me: is the compound COc1ccc(N2C(=O)CSC2c2sc(-c3ccccc3)nc2C)cc1 (stereo unspecified) at or over 60% in terms of inhibition in vivo at 40 mg/kg?
false

Please tell me: is the compound Cc1nc(-c2ccccc2)sc1C1SCC(=O)N1c1ccc(Cl)cc1 (stereo unspecified) at or over 60% in terms of inhibition in vivo at 40 mg/kg?
false

Please tell me: is the compound Cc1nc(-c2ccc(Cl)cc2)sc1C1SCC(=O)N1c1ccc(F)c(Cl)c1 (stereo unspecified) at or over 60% in terms of inhibition in vivo at 40 mg/kg?
false

Please tell me: is the compound COc1ccc2c(c1)c(CC(=O)O)c(C)n2C(=O)c1ccc(Cl)cc1 at or over 60% in terms of inhibition in vivo at 40 mg/kg?
true

###

Test system: Rattus norvegicus
Assay: Antiinflammatory activity in Wistar albino rat assessed as inhibition of carrageenan-induced paw edema at 40 mg/kg, po administered 1 hr prior to carrageenan challenge measured 2 hrs post carrageenan challenge relative to control
Format: functional
Give measured inhibition in vivo at 40 mg/kg for each item. Keep answers brief.
Enter the number, and then the unit.

GET inhibition in vivo at 40 mg/kg | system: Rattus norvegicus | item: Cc1nc(-c2ccc(Cl)cc2)sc1C1SCC(=O)N1c1ccc(F)cc1 (stereo not given)
63.9%

GET inhibition in vivo at 40 mg/kg | system: Rattus norvegicus | item: COc1ccc(N2C(=O)CSC2c2sc(-c3ccc(Cl)cc3)nc2C)cc1 (stereo not given)
80.7%

GET inhibition in vivo at 40 mg/kg | system: Rattus norvegicus | item: Cc1ccc(N2C(=O)CSC2c2sc(-c3ccccc3)nc2C)cc1 (stereo not given)
60.1%

GET inhibition in vivo at 40 mg/kg | system: Rattus norvegicus | item: Cc1nc(-c2ccccc2)sc1C1SCC(=O)N1c1ccc(F)cc1 (stereo not given)
63.4%

GET inhibition in vivo at 40 mg/kg | system: Rattus norvegicus | item: Cc1ccc(N2C(=O)CSC2c2sc(-c3ccc(Cl)cc3)nc2C)cc1 (stereo not given)
37.6%

GET inhibition in vivo at 40 mg/kg | system: Rattus norvegicus | item: Cc1nc(-c2ccccc2)sc1C1SCC(=O)N1c1ccccc1 (stereo not given)
50.6%

GET inhibition in vivo at 40 mg/kg | system: Rattus norvegicus | item: Cc1nc(-c2ccc(Cl)cc2)sc1C1SCC(=O)N1c1ccc(F)c(Cl)c1 (stereo not given)
45.1%

GET inhibition in vivo at 40 mg/kg | system: Rattus norvegicus | item: COc1ccc(N2C(=O)CSC2c2sc(Cc3ccc(Cl)cc3)nc2C)cc1 (stereo not given)
28.6%

GET inhibition in vivo at 40 mg/kg | system: Rattus norvegicus | item: COc1ccc2c(c1)c(CC(=O)O)c(C)n2C(=O)c1ccc(Cl)cc1
78.3%

GET inhibition in vivo at 40 mg/kg | system: Rattus norvegicus | item: Cc1nc(-c2ccc(Cl)cc2)sc1C1SCC(=O)N1c1ccc(Cl)cc1 (stereo not given)
45.7%
